# measurement.target: T1, human PD-1 (#PD1-H82E4, AcroBiosystems) (human, UniProt Q15116 25-167)
# T1 construct: bought
# T1 sequence (Q15116 25-167 limits assumed): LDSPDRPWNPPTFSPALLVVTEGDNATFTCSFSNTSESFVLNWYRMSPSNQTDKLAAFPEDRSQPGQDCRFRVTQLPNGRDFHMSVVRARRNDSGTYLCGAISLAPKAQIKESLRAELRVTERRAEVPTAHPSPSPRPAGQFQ
# experiment: SPR, PD-1 on captured IgG1
Attribute: kon
Provide only the numeric value, understood in M⁻¹ s⁻¹.

binder="GDY271 (antibody, human IgG1, V domains shown, human IgG1) VH: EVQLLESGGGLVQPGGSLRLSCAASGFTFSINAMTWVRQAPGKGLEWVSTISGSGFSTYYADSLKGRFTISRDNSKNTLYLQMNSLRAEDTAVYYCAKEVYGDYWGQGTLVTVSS VL: RSVLTQPPSASGTPGQRVSISCSGASSNIGSQSVYWYQQLPGTAPKLLIYSNNQRPSGVPDRFSGSKSGTSASLAISGLRSEDEADYYCAAWDDSLSIWVFGGGTKLTVL" recorded_measurement=364000

Req: // kon lookup, key: KYC847 (antibody, human IgG1, V domains shown, human IgG1) VH: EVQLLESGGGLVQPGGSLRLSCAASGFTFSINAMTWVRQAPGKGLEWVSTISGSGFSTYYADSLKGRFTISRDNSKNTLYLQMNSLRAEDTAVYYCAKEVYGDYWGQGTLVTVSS VL: RSVLTQPPSASGTPGQRVSISCSGASSNIGSQSVFWYQQLPGTAPKLLIYSNNQRPSGVPDRFSGSKSGTSASLAISGLRSEDEADYYCAAWDDSLTIWVFGGGTKLTVL
Resp: 144000

Req: So what's the measured kon for this one? KOW427 (antibody, human IgG1, V domains shown, human IgG1) VH: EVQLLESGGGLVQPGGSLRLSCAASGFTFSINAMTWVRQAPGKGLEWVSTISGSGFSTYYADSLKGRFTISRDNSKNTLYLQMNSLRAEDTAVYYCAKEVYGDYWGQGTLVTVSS VL: RSVLTQPPSASGTPGQRVSISCSGASSNIGSQSVFWYQQLPGTAPKLGIYSNNQRPSGVPDRFSGSKSGTSASLAISGLRSEDEADYYCAAWDDSLSIWVFGGGTKLTVL
Resp: 136000
